# Tested On: Mitogen-activated protein kinase 14 (Homo sapiens)
# Assay Overview: Inhibitory activity against mitogen activated protein (MAP) kinase p38 alpha.
Value Type: IC50 (nM)

Example cases with answers are listed next.
# Sample Smiles, IC50 (nM)
data = [
    ("Cc1ccc(-c2nc(-c3cccs3)[nH]c2-c2ccc3c(c2)n(C)c(=O)n3C)cc1", 1800),
    ("CCn1c(=O)n(CC)c2cc(-c3c(-c4ccc(F)cc4)ncn3C3CCNCC3)ccc21", 90),
]

I = Cc1cccc(-c2nc(C3CCNCC3)[nH]c2-c2ccc3c(c2)n(C)c(=O)n3C)c1
II = Cn1c(=O)n(C)c2cc(-c3[nH]c(-c4cccs4)nc3-c3ccccc3Cl)ccc21
Problem: Which of the two gives a bigger number for IC50: I or II ? Use the label to indicate which entry you chose.
Result: II
(II: 540 nM, I: 70 nM)

###

# Tested On: Mitogen-activated protein kinase 14 (Homo sapiens, UniProt Q16539)
# Sequence (Q16539 whole entry): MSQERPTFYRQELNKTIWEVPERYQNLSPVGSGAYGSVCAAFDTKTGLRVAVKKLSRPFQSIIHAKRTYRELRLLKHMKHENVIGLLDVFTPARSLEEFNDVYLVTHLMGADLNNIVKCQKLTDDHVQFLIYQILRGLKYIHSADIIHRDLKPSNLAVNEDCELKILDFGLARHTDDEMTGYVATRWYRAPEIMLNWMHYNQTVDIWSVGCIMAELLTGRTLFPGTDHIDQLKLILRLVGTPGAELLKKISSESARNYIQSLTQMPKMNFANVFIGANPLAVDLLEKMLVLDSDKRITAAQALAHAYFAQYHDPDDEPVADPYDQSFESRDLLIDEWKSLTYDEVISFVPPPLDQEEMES
# Assay Overview: Inhibitory activity against mitogen activated protein (MAP) kinase p38 alpha.
Value Type: IC50 (nM)

# Sample Smiles, Value Type, Recorded Result
data = [
    ("CCn1c(=O)n(CC)c2cc(-c3ocnc3-c3cccc(C)c3)ccc21", "IC50", 800),
    ("Cn1c(=O)n(C)c2cc(-c3[nH]c(-c4cccs4)nc3-c3cccc(Cl)c3)ccc21", "IC50", 380),
    ("CCc1ccc(-c2[nH]c(-c3cccs3)nc2-c2ccc3c(c2)n(C)c(=O)n3C)cc1", "IC50", 8000),
    ("Cn1c(=O)n(C)c2cc(-c3[nH]c(-c4cccs4)nc3-c3cccc(C(F)(F)F)c3)ccc21", "IC50", 1500),
    ("CCn1c(=O)n(CC)c2cc(-c3n[nH]cc3-c3ccccc3)ccc21", "IC50", 680),
    ("Cn1c(=O)n(C)c2cc(-c3[nH]cnc3-c3ccccc3)ccc21", "IC50", 290),
]

I = Cn1c(=O)n(C)c2cc(-c3[nH]c(-c4cccs4)nc3-c3cccc(OC(F)(F)F)c3)ccc21
II = CCn1c(=O)n(CC)c2cc(-c3ccnn3-c3cccc(C)c3)ccc21
Problem: Dear colleague, could you let me know whether I or II has the lower recorded IC50? Thanks. Use the label to indicate which entry you chose.
Result: II
(II: 690 nM, I: 15800 nM)

a = Cc1cccc(-c2nc[nH]c2-c2ccc3c(c2)n(C)c(=O)n3C)c1
b = Cn1c(=O)n(C)c2cc(-c3[nH]c(-c4cccs4)nc3-c3ccc(Cl)cc3)ccc21
c = CCn1c(=O)n(CC)c2cc(-c3[nH]cnc3-c3cccc(C)c3)ccc21
d = Cn1c(=O)n(C)c2cc(-c3[nH]c(-c4cccs4)nc3-c3ccc(F)cc3)ccc21
e = Cn1c(=O)n(C)c2cc(-c3n[nH]cc3-c3ccccc3)ccc21
Problem: Would you mind ranking these molecules by ascending IC50? Provide the ranking by listing each label in its place in the requested order.
Result: c, a, d, b, e
(c: 50 nM, a: 100 nM, d: 270 nM, b: 680 nM, e: 2500 nM)

P = Cc1cccc(-c2nc(-c3cccnc3)[nH]c2-c2ccc3c(c2)n(C)c(=O)n3C)c1
Q = CCn1c(=O)n(CC)c2cc(-c3c[nH]nc3-c3cccc(C)c3)ccc21
Problem: Which of the two gives a bigger number for IC50: P or Q ? Use the label to indicate which entry you chose.
Result: P

###

# Tested On: Mitogen-activated protein kinase 14 (Homo sapiens)
# Assay Overview: Inhibitory activity against mitogen activated protein (MAP) kinase p38 alpha.
Value Type: IC50 (nM)

# Sample Smiles, Units, Recorded Result
measured = [
    ("Cc1cccc(-c2nc(-c3cccs3)[nH]c2-c2ccc3c(c2)n(C)c(=O)n3C)c1", "nM", 140),
    ("Cn1c(=O)n(C)c2cc(-c3[nH]c(-c4cccs4)nc3-c3cccc(F)c3)ccc21", "nM", 390),
    ("CCn1c(=O)n(CC)c2cc(-c3[nH]cnc3-c3ccc(F)cc3)ccc21", "nM", 100),
    ("Cc1cccc(-c2[nH]c3nc(N)ccc3c2-c2ccc3c(c2)n(C)c(=O)n3C)c1", "nM", 260),
]

I = Cn1c(=O)n(C)c2cc(-c3[nH]c(-c4cccs4)nc3-c3ccccc3F)ccc21
II = CCn1c(=O)n(CC)c2cc(-c3n[nH]cc3-c3cccc(C)c3)ccc21
III = CCn1c(=O)n(CC)c2cc(-c3c(-c4cccc(C)c4)nc(C4CCNCC4)n3C)ccc21
Problem: Would you mind ranking these compounds by ascending IC50? Provide the ranking by listing each label in its place in the requested order.
Result: I, II, III

###

# Tested On: Mitogen-activated protein kinase 14 (Homo sapiens, UniProt Q16539)
# Assay Overview: Inhibitory activity against mitogen activated protein (MAP) kinase p38 alpha.
pIC50: −log10 of the molar value.
Value Type: pIC50

Example cases with answers are listed next.
# Molecule, pIC50
rows = [
    ("CCn1c(=O)n(CC)c2cc(-c3c[nH]nc3-c3ccccc3)ccc21", 6.70),
    ("CCn1c(=O)n(CC)c2cc(-c3[nH]cnc3-c3ccccc3)ccc21", 6.85),
    ("Cc1ccccc1-c1nc(-c2cccs2)[nH]c1-c1ccc2c(c1)n(C)c(=O)n2C", 5.21),
]

1 = Cn1c(=O)n(C)c2cc(-c3[nH]c(-c4ccc([S+](C)[O-])cc4)nc3-c3ccc(F)cc3)ccc21 (stereo not given)
2 = Cn1c(=O)n(C)c2cc(-c3[nH]cnc3-c3ccc(F)cc3)ccc21
3 = Cc1cccc(-c2nncn2-c2ccc3c(c2)n(C)c(=O)n3C)c1
4 = CCn1c(=O)n(CC)c2cc(-c3c[nH]nc3-c3ccc(F)c(C)c3)ccc21
5 = CCn1c(=O)n(CC)c2cc(-c3[nH]c(-c4cccnc4)nc3-c3cccc(C)c3)ccc21
Problem: Sort the 5 molecules by pIC50; largest first, smallest last. Provide the ranking by listing each label in its place in the requested order.
Result: 4, 5, 2, 1, 3

P = Cn1c(=O)n(C)c2cc(-c3c[nH]nc3-c3ccccc3)ccc21
Q = CCc1cccc(-c2[nH]c(-c3cccs3)nc2-c2ccc3c(c2)n(C)c(=O)n3C)c1
Problem: Dear colleague, could you let me know whether P or Q has the lower recorded pIC50? Thanks. Use the label to indicate which entry you chose.
Result: Q
(Q: 6.30, P: 6.70)

###

# Tested On: Mitogen-activated protein kinase 14 (Homo sapiens)
# Assay Overview: Inhibitory activity against mitogen activated protein (MAP) kinase p38 alpha.
Value Type: IC50 (nM)

I = Cc1cccc(-n2cncc2-c2ccc3c(c2)n(C)c(=O)n3C)c1
II = CCn1c(=O)n(CC)c2cc(-c3c[nH]nc3-c3cccc(C(F)(F)F)c3)ccc21
III = Cn1c(=O)n(C)c2cc(-c3[nH]c(-c4cccs4)nc3-c3ccccc3)ccc21
Problem: Put the above molecules in order of rising IC50, beginning with the smallest. Provide the ranking by listing each label in its place in the requested order.
Result: II, III, I

###

In this section we review reported IC50 values for a set of molecules.
# Tested On: Mitogen-activated protein kinase 14 (Homo sapiens, UniProt Q16539)
# Assay Overview: Inhibitory activity against mitogen activated protein (MAP) kinase p38 alpha.

Example cases with answers are listed next.
# Sample Smiles, IC50
rows = [
    ("CCn1c(=O)n(CC)c2cc(-c3cc(-c4cccnc4)[nH]c3-c3cccc(C)c3)ccc21", "> 1000 nM"),
    ("CCn1c(=O)n(CC)c2cc(-c3cccnc3-c3cccc(C)c3)ccc21", "> 1000 nM"),
]

Lab note: next molecule to report on.
Problem: Reported IC50 for Mitogen-activated protein kinase 14 (Homo sapiens, UniProt Q16539), given CCn1c(=O)n(CC)c2cc(-c3nnnn3-c3ccc(F)c(C)c3)ccc21 ?
Result: > 1000 nM
